molecular target: N1-BR18 (IAV neuraminidase) (Influenza A virus, UniProt A0A0X9QTS2); assay: Fluorescence-based inhibition assay (substrate Neu5Acα2-3GalβMU, β-galactosidase coupled); assay type: biochemical, influenza A virus A/Brisbane/02/2018 (H1N1); settings: inhibitor 8.0 μM, substrate Neu5Acα2-3GalβMU 8.0 μM; Example 2, Table 2
Readout: Percentage inhibition against N1-BR18 (IAV) (%)
Answers are plain numbers, in %.

Compound	U	Reported value
CC(=O)N[C@H]1[C@H]([C@H](O)[C@H](O)CO)OC(C(=O)O)=C[C@@H]1O [Neu5Ac2en, 2,3-dehydro-N-acetylneuraminic acid, reference compound]	%	60.8
CC(=O)N[C@H]1[C@H]([C@H](O)[C@H](O)CO)OC(O)(C(=O)O)C[C@@H]1NC(=N)N (stereo partly shown)	%	76.4
CC(=O)N[C@H]1[C@H]([C@H](O)[C@H](O)CO)OC(C(=O)O)=C[C@@H]1NC(C)=O	%	0.0

Give one value of Percentage inhibition against N1-BR18 (IAV) per listed compound.
1. CC(=O)N[C@H]1[C@H]([C@H](O)[C@H](O)CO)OC(O)(C(=O)O)C[C@@H]1NC(C)=O (stereo partly shown)
2. CC(=O)N[C@H]1[C@H]([C@H](O)[C@H](O)CO)OC(C(=O)O)=C[C@@H]1N=[N+]=[N-]
3. CC(=O)N[C@H]1[C@H]([C@H](O)[C@H](O)CO)OC(O)(C(=O)O)C[C@@H]1N=[N+]=[N-] (stereo partly shown)
4. CC(=O)N[C@H]1[C@H]([C@H](O)[C@H](O)CO)OC(C(=O)O)=C[C@@H]1N [4NH2Neu5Ac2en, reference compound]

11.5
40.7
0.0
93.6

* * *

molecular target: NB-Phu13 (IBV neuraminidase) (Influenza B virus, UniProt A0A1S5RAG6); test: Fluorescence-based inhibition assay (substrate Neu5Acα2-3GalβMU, β-galactosidase coupled); assay type: biochemical, influenza B virus B/Phuket/3073/2013; conditions: inhibitor 8.0 μM; Example 3, Table 4
Sequence (A0A1S5RAG6 39-466): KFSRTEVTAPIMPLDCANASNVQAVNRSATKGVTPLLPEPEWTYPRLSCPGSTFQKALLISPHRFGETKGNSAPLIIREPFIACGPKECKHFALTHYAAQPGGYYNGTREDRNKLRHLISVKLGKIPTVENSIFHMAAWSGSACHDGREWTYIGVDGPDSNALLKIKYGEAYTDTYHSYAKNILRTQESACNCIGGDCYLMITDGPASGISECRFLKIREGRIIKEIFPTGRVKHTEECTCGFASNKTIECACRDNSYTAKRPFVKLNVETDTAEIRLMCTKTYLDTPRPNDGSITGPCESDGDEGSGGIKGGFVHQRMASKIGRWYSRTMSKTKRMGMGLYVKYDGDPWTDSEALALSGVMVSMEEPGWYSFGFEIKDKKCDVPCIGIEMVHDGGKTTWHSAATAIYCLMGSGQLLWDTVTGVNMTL
Readout: percentage inhibition against NB-Phu13 (%)
One number for each entry, in %.

Compound	Reported value
CC(=O)N[C@H]1[C@H]([C@H](O)[C@H](O)CO)OC(C(=O)O)=C[C@@H]1N=[N+]=[N-]	75.6
CC(=O)N[C@H]1[C@H]([C@H](O)[C@H](O)CO)OC(C(=O)O)=C[C@@H]1O [Neu5Ac2en, 2,3-dehydro-N-acetylneuraminic acid, reference compound]	76.2
CC(=O)N[C@H]1[C@H]([C@H](O)[C@H](O)CO)OC(C(=O)O)=C[C@@H]1N [4NH2Neu5Ac2en, reference compound]	91.2

Turning now to a further record.
For record CC(=O)N[C@H]1[C@H]([C@H](O)[C@H](O)CO)OC(C(=O)O)=C[C@@H]1NC(C)=O the listed percentage inhibition against NB-Phu13 is 0.6

* * *

target: UniProt:A0A0X9QTS2; test: Fluorescence-based inhibition assay (substrate Neu5Acα2-3GalβMU, β-galactosidase coupled); format: biochemical, influenza A virus A/Brisbane/02/2018 (H1N1); conditions: fluorescence-based inhibition assay; Example 2, Table 3; listed as 4NH2Neu5 Ac2en; read-out: IC50 against N1-BR18
Readout: pIC50
Answers are plain numbers, as −log10 of the molar value.

For record CC(=O)N[C@H]1[C@H]([C@H](O)[C@H](O)CO)OC(C(=O)O)=C[C@@H]1N [4NH2Neu5Ac2en, reference compound] the listed pIC50 is 6.31
